tested on: ND3 neuronal cell line; assay: Measurement of nerve growth stimulation effect (neurite bearing assay, neurite length assay, number of cells); type: cell-based; details: 10 μM; 6 hours; relative cell number, DMSO well = 1

Molecule	Study Target	Units Of Measure	viability at 10 µM
CCCCOCCCCCCCCCCCCC1=C(C)C(=O)CCC1(C)C	ND3 neuronal cell line	%	88
COC(C)(C)CCCCCCCCCCCCCCC1=C(C)C(=O)CCC1(C)C	ND3 neuronal cell line	%	90
CCNC(=O)OCCCCCCCCCCCCCCCC1=C(C)C(=O)CCC1(C)C	ND3 neuronal cell line	%	95
CC1=C(CCCCCCCCCCCCCCCO)CCCC1=O [Compound 7, reference compound]	ND3 neuronal cell line	%	86
[2H]C([2H])(CCCCCCCCCCCCCCC1=C(C)C(=O)CCC1(C)C)OC	ND3 neuronal cell line	%	68
CCCOCCCCCCCCCCCCC1=C(C)C(=O)CCC1(C)C	ND3 neuronal cell line	%	95
CC1=C(CCCCCCCCCCCCCCC(=O)N(C)C)C(C)(C)CCC1=O	ND3 neuronal cell line	%	90
CC1=C(CCCCCCCCCCCCCCCCO)C(C)(C)CCC1=O [Compound 5, reference compound]	ND3 neuronal cell line	%	83
COCCCCCCCCCCCCCCCC1=C(C)C(=O)C(C)C1C (stereo not drawn)	ND3 neuronal cell line	%	78

* * *

Reported viability at 10 µM by item:
test system: ND3 neuronal cell line; assay: Measurement of nerve growth stimulation effect (neurite bearing assay, neurite length assay, number of cells); format: cell-based; conditions: 10 μM; 6 hours; relative cell number, DMSO well = 1

Molecule	Study Target	viability at 10 µM, %
CC1=C(CCCCCCCCCCCCCCCOC(N)=O)C(C)(C)CCC1=O	ND3 neuronal cell line	82
CCOCCCCCCCCCCCCCCC1=C(C)C(=O)CCC1(C)C	ND3 neuronal cell line	103
CC1=C(CCCCCCCCCCCCCO)C(C)(C)CCC1=O [Compound 2, reference compound]	ND3 neuronal cell line	96
CC1=C(CCCCCCCCCCCCCCCOC(F)(F)F)C(C)(C)CCC1=O	ND3 neuronal cell line	101
CCC1=C(CCCCCCCCCCCCCCCOC)C(C)(C)CCC1=O	ND3 neuronal cell line	78
COCCCCCCCCCCCCCCCC1=C(COC)C(=O)CCC1(C)C	ND3 neuronal cell line	83
COCCCCCCCCCCCCCCCC1=CC(=O)CCC12CC2	ND3 neuronal cell line	86
COCCCCCCCCCCCCCCC1=C(C)C(=O)CCC1(C)C	ND3 neuronal cell line	103
CC1=C(CCCCCCCCCCCCCCCOCc2ccccc2)C(C)(C)CCC1=O	ND3 neuronal cell line	96

* * *

Reported Number of cells by item:
test system: ND3 neuronal cell line; test: Measurement of nerve growth stimulation effect (neurite bearing assay, neurite length assay, number of cells); type: cell-based; conditions: 100 μM compound; ND3 cells, 6 h; relative cell number, DMSO well = 1

Molecule	Number of cells
COCCCCCCCCCCCCCCCC1=C(C(C)C)C(=O)CCC1(C)C	0.91
COCCCCCCCCCCCCCCCC1=C(C)C(=NO)CCC1(C)C	0.93
CC1=C(CCCCCCCCCCCCCCC(N)=O)C(C)(C)CC1=O	0.26
CCOCCCCCCCCCCCCCCC1=C(C)C(=O)CC1(C)C	0.09
COCCCCCCCCCCCCCCCC1=C(C)C(N)CCC1(C)C (centres unmarked)	0.04

* * *

test system: ND3 neuronal cell line; assay: Measurement of nerve growth stimulation effect (neurite bearing assay, neurite length assay, number of cells); type: cell-based; settings: 1 μM compound; ND3 cells, 6 h; relative cell number, DMSO well = 1
Reported Property: Number of cells

Smiles Data	Study Target	Reported Property	Result
CCCOCCCCCCCCCCCCC1=C(C)C(=O)CC1(C)C	ND3 neuronal cell line	Number of cells	0.87
COCCCCCCCCCCCCCCCC1=C(C(C)C)C(=O)CCC1(C)C	ND3 neuronal cell line	Number of cells	0.92
CCOCCCCCCCCCCCCCCC1=C(C)C(=O)CC1(C)C	ND3 neuronal cell line	Number of cells	0.91
COCCCCCCCCCCCCCCCC1=C(C)C(=NO)CCC1(C)C	ND3 neuronal cell line	Number of cells	0.92
COCCCCCCCCCCCCC1=C(C)C(=O)CC1(C)C	ND3 neuronal cell line	Number of cells	0.84

* * *

test system: ND3 neuronal cell line; test: Measurement of nerve growth stimulation effect (neurite bearing assay, neurite length assay, number of cells); assay type: cell-based; conditions: 1 μM; 6 hours; relative cell number, DMSO well = 1

Compound	Study Target	Units Of Measure	viability at 1 µM
CC1=C(CCCCCCCCCCCCCCCOc2ccccc2)C(C)(C)CCC1=O	ND3 neuronal cell line	%	107
CC1=C(CCCCCCCCCCCCCO)C(C)(C)CCC1=O [Compound 2, reference compound]	ND3 neuronal cell line	%	113
COCCCCCCCCCCCCCCCC1=CC(=O)CCC12CC2	ND3 neuronal cell line	%	97
COCCCCCCCCCCCCCCCC1=C(C)C(=O)CCC1	ND3 neuronal cell line	%	96
CC1=C(CCCCCCCCCCCCCCCOC(=O)N(C)C)C(C)(C)CCC1=O	ND3 neuronal cell line	%	91

* * *

tested on: ND3 neuronal cell line; experiment: Measurement of nerve growth stimulation effect (neurite bearing assay, neurite length assay, number of cells); type: cell-based; settings: 30 μM compound; ND3 cells, 6 h; relative cell number, DMSO well = 1
Reported Number of cells by item:

Compound	Number of cells
COCCCCCCCCCCCCCCCC1=C(C(C)C)C(=O)CCC1(C)C [Compound 62]	0.91
COCCCCCCCCCCCCCCCC1=C(C)C(=NO)CCC1(C)C [Compound 67]	0.94
COCCCCCCCCCCCCCCC1=C(C)C(=O)CC1(C)C [Compound 72]	0.41
CCOCCCCCCCCCCCCCCC1=C(C)C(=O)CC1(C)C [Compound 73]	0.61
CCCOCCCCCCCCCCCCC1=C(C)C(=O)CC1(C)C [Compound 71]	0.39
COCCCCCCCCCCCCCCCC1=C(C)C(N)CCC1(C)C (stereo not shown) [Compound 66]	0.39
CCCC1=C(CCCCCCCCCCCCCCCOC)C(C)(C)CCC1=O [Compound 61]	0.92
COCCCCCCCCCCCCCCCC1=C(C)/C(=N/OC)CCC1(C)C [Compound 68]	0.95
COCCCCCCCCCCCCC1=C(C)C(=O)CC1(C)C [Compound 70]	0.79
CC1=C(CCCCCCCCCCCCCCC(N)=O)C(C)(C)CC1=O [Compound 74]	0.60

* * *

Test system: ND3 neuronal cell line
Experiment: Measurement of nerve growth stimulation effect (neurite bearing assay, neurite length assay, number of cells)
Type: cell-based
Conditions: 3 μM; 6 hours; relative cell number, DMSO well = 1
Description: To evaluate the nerve growth stimulation effect, neurite bearing assay (proportion of neurite-bearing cells) and neurite length assay (neurite length) were analyzed with reference to the method of Topalli et al. (Brain Research 1030 (2004), pp. 116-124). An ND3 neuronal cell line (European Collection of Authenticated Cell Cultures) was seeded in a DMEM medium containing 10% fetal bovine serum (0.6×10^4 cells/1 mL) in a 24-well plate. […]

Molecule	viability at 3 µM / %
CC1=C(CCCCCCCCCCCCCCCOCc2ccccc2)C(C)(C)CCC1=O	100
CCCCOCCCCCCCCCCCCC1=C(C)C(=O)CCC1(C)C	100
CC1(C)CCC(=O)C=C1CCCCCCCCCCCCCCCO [Compound 8, reference compound]	102
CCC1=C(CCCCCCCCCCCCCCCOC)C(C)(C)CCC1=O	91
CCCOCCCCCCCCCCCCC1=C(C)C(=O)CCC1(C)C	98

* * *

test system: ND3 neuronal cell line; assay: Measurement of nerve growth stimulation effect (neurite bearing assay, neurite length assay, number of cells); assay type: cell-based; conditions: 3 μM compound; ND3 cells, 6 h; relative cell number, DMSO well = 1
Reported Number of cells by item:

Compound	Study Target	Number of cells
COCCCCCCCCCCCCCCCC1=C(C)C(=O)CC1(C)C	ND3 neuronal cell line	0.89
CCOCCCCCCCCCCCCCCC1=C(C)C(=O)CC1(C)C	ND3 neuronal cell line	0.86
CC1=C(CCCCCCCCCCCCCCC(N)=O)C(C)(C)CC1=O	ND3 neuronal cell line	0.75
COCCCCCCCCCCCCCCCC1=C(C(C)C)C(=O)CCC1(C)C	ND3 neuronal cell line	0.89
COCCCCCCCCCCCCCCC1=C(C)C(=O)CC1(C)C	ND3 neuronal cell line	0.85
CCCOCCCCCCCCCCCCC1=C(C)C(=O)CC1(C)C	ND3 neuronal cell line	0.94
COCCCCCCCCCCCCCCCC1=C(C)C(N)CCC1(C)C (stereo not drawn)	ND3 neuronal cell line	1.11
COCCCCCCCCCCCCCCCC1=C(C)C(O)CCC1(C)C (stereo not drawn)	ND3 neuronal cell line	1.09
CCCC1=C(CCCCCCCCCCCCCCCOC)C(C)(C)CCC1=O	ND3 neuronal cell line	0.82
COCCCCCCCCCCCCCCCC1C(C)C(=O)CCC1(C)C (stereo not drawn)	ND3 neuronal cell line	1.05
COCCCCCCCCCCCCCCCC1=C(C)CCCC1(C)C	ND3 neuronal cell line	0.93
COCCCCCCCCCCCCCCCC1=C(C)C(=NO)CCC1(C)C	ND3 neuronal cell line	0.89
COCCCCCCCCCCCCCCCC1=C(C)/C(=N/OC)CCC1(C)C	ND3 neuronal cell line	0.92
COCCCCCCCCCCCCC1=C(C)C(=O)CC1(C)C	ND3 neuronal cell line	0.91
CC1=C(CCCCCCCCCCCCCCC#N)C(C)(C)CC1=O	ND3 neuronal cell line	0.93

Data provenance: patent US20230295068A1
